- target of assay: ADP-Glc PPase from Anabaena (Nostoc sp. PCC 7120 = FACHB-418, UniProt P30521)
- Construct: gene glgC; recombinant homotetramer from E. coli AC70R1-504, purified
- Sequence (P30521 1-429): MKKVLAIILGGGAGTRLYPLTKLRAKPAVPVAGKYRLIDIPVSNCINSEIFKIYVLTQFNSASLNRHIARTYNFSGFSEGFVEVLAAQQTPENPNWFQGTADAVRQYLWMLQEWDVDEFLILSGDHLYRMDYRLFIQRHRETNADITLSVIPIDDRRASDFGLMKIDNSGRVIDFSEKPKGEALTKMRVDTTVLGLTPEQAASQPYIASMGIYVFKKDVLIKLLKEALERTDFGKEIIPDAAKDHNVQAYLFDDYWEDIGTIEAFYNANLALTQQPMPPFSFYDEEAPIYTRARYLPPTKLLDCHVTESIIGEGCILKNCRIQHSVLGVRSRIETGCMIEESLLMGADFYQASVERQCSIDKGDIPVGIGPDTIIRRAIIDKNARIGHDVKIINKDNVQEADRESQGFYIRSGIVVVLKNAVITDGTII
- assay overview: ADP-[…]Glc synthesis from […]Glc1P, modified Hill fit
- Format: biochemical
- settings: allosteric activator; 1 mM ATP, 1 mM Glc1P, 7 mM MgCl2, pH 8.0, 37 °C; read-out: A0.5
measured quantity: EC50
Include the unit right after the number.

Please review the following examples before continuing.
O=P(O)(O)OC[C@H]1OC(O)(CO)[C@@H](O)[C@@H]1O (stereo partly drawn) : 1600 µM
O=P(O)(O)OC[C@H]1OC(O)[C@H](O)[C@@H](O)[C@@H]1O (stereo partly drawn) : 400 µM

Turning now to a further record.
EC50 for ADP-Glc PPase from Anabaena (Nostoc sp. PCC 7120 = FACHB-418, UniProt P30521) with input O=P(O)(O)OC[C@H]1OC(O)(COP(=O)(O)O)[C@@H](O)[C@@H]1O (stereo partly drawn) equals 300 µM

====

- System: OtaS/OtaL
- Construct: recombinant S2L2 heterotetramer co-expressed in E. coli AC70R1-504, purified
- assay overview: ADP-[…]Glc synthesis from […]Glc1P, modified Hill fit
- Type: biochemical, Ostreococcus tauri
- settings: allosteric activator; 1 mM ATP, 1 mM Glc1P, 7 mM MgCl2, pH 8.0, 37 °C; read-out: A0.5
measured quantity: EC50 (mM)
Numbers only, in mM.

Please review the following examples before continuing.
O=P(O)(O)OC[C@H]1OC(O)(CO)[C@@H](O)[C@@H]1O (stereo partly shown) : 15
O=P(O)(O)OC[C@H]1OC(O)[C@H](O)[C@@H](O)[C@@H]1O (stereo partly shown) : 75
O=P(O)(O)OC[C@H]1OC(O)(COP(=O)(O)O)[C@@H](O)[C@@H]1O (stereo partly shown) : 1.1

Turning now to a further record.
Form field EC50, entry `O=C(O)[C@H](O)COP(=O)(O)O` : 0.54

====

- target of assay: ADP-Glc PPase from Anabaena (Nostoc sp. PCC 7120 = FACHB-418, UniProt P30521)
- Construct: gene glgC; recombinant homotetramer from E. coli AC70R1-504, purified
- Sequence (P30521 1-429): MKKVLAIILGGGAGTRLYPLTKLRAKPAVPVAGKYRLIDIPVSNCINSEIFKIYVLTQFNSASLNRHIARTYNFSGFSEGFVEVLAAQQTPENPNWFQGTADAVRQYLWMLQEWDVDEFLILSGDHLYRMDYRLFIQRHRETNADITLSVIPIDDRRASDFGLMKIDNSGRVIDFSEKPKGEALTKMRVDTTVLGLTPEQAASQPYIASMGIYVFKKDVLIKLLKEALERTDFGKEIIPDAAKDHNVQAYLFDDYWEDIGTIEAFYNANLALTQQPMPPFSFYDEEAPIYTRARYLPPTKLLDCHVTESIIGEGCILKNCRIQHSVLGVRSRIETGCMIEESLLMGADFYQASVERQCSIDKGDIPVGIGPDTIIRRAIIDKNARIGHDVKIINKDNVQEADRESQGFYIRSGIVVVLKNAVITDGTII
- assay overview: ADP-[…]Glc synthesis from […]Glc1P, modified Hill fit
- Format: biochemical
- settings: read-out: A0.5
measured quantity: EC50 (µM)
One number for each entry, in µM.

Form field EC50, entry `O=C(O)[C@H](O)COP(=O)(O)O` : 75
